Recorded values, source paper PMC5100602.

biological target: Gk-S15 (ribosomal protein S15) (Geobacillus kaustophilus, UniProt Q5L0I3 1-89); test: filter binding; Fmax 0.36; SELEX Binding Buffer A: 50 mM Tris/acetate pH 7.5, 20 mM Mg-acetate, 270 mM KCl, 5 mM DTT, 0.02% BSA, 25 C, 30 min; filter binding (nitrocellulose/nylon) as previously described; conditions: protein: recombinant; tags: expressed from pET-HT; label: 5'-32P
Property: Kd (nM)
Write the answer as a number in nM, unit excluded.

q: So what does the record say about Kd for 11-1-M4 (structured_RNA) RNA: UGCGUAACGUACACUUCCUUCGCUUAUUCGGAGUAGAUCACGUGAUCAUUCUGUAUGCUUUGGAG ?
a: 7.7
